log10 IC50 listing for selected molecules.
# Assayed System: hSLC13A5 (Homo sapiens)
# Sequence (Q86YT5 whole entry): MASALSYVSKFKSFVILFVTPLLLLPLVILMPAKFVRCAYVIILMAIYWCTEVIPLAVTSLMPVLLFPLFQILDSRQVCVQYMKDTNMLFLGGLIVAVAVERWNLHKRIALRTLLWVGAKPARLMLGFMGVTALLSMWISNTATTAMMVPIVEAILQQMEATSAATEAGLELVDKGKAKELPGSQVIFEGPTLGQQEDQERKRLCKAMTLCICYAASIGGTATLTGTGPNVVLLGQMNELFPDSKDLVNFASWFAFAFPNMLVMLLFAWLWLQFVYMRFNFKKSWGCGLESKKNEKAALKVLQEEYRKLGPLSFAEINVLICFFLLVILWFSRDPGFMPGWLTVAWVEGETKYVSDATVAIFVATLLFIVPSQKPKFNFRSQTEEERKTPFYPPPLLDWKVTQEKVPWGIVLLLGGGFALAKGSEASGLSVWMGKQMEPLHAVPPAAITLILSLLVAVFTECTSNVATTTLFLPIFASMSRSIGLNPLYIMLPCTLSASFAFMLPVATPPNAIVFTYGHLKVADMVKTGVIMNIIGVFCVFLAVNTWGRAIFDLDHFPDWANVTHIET
# Assay Comment: Recombinant hSLC13A5/14C-citrate uptake assay
# Type: cell-based
# Applied Conditions: HEK293 Flp-In cells over-expressing hSLC13A5; WGA-PVT SPA beads; 14C-citrate approx. 2 μM; 4 h
// do not treat as linear: log10 of IC50, unit nM

Some molecules with recorded log10 IC50:
| Molecule | log10 IC50 |
| --- | --- |
| O=C(NCc1ccccn1)C1CCN(S(=O)(=O)c2cc(Br)cc(Br)c2)CC1 [(I-37)] | 1.95 |
| O=C(NCc1ccc(Br)cn1)C1CCN(S(=O)(=O)c2cc(Cl)cc(Cl)c2)CC1 [(I-28)] | 2.10 |
| CCOc1cc(Cl)cc(S(=O)(=O)N2CCC(C(=O)NCc3ccc(Cl)cn3)CC2)c1 [(I-52)] | 2.30 |
| Cc1cnc(CNC(=O)C2CCN(S(=O)(=O)c3cc(Cl)cc(Cl)c3)CC2)s1 [(I-27)] | 2.53 |
| N#Cc1ccc(CNC(=O)C2CCN(S(=O)(=O)c3cc(Cl)cc(Cl)c3)CC2)cc1 [Example (I-1)] | 1.90 |
| Cc1cc(Br)cc(S(=O)(=O)N2CCC(C(=O)NCc3cccnc3)CC2)c1 [(I-60)] | 2.96 |
| O=C(NCc1ccc(F)cc1)C1CCN(S(=O)(=O)c2cc(Cl)cc(Cl)c2)CC1 [(I-10)] | 1.75 |
| COc1ncccc1CNC(=O)C1CCN(S(=O)(=O)c2cc(Br)cc(Br)c2)CC1 [(I-33)] | 2.44 |

We next turn to a different molecule, shown below.
Per the records, this molecule ( O=C(NCc1ccccn1)C1CCN(S(=O)(=O)c2cc(Cl)cc(Cl)c2)CC1 [(I-11)] ) has log10 IC50 equal to 2.84

* * *

IC50 listing for selected compounds.
# Assayed System: hSLC13A5 (Homo sapiens)
# Assay Comment: Recombinant hSLC13A5/14C-citrate uptake assay
# Type: cell-based
# Applied Conditions: HEK293 Flp-In cells over-expressing hSLC13A5; WGA-PVT SPA beads; 14C-citrate approx. 2 μM; 4 h
Enter your answer as a number in nM; do not include the unit.

Some compounds with recorded IC50:
| Compound | Units Symbol | IC50 |
| --- | --- | --- |
| Cc1ccc(CNC(=O)C2CCN(S(=O)(=O)c3cc(Cl)cc(Cl)c3)CC2)cn1 [(I-16)] | nM | 675 |
| CCOc1cc(Cl)cc(S(=O)(=O)N2CCC(C(=O)NCc3ccc(C#N)cc3)CC2)c1 [(I-54)] | nM | 231 |
| CCc1ccc(CNC(=O)C2CCN(S(=O)(=O)c3cc(Cl)cc(Cl)c3)CC2)nc1 [(I-17)] | nM | 138 |
| COc1ncccc1CNC(=O)C1CCN(S(=O)(=O)c2cc(C)cc(Br)c2)CC1 [(I-58)] | nM | 837 |
| COc1cc(Cl)cc(S(=O)(=O)N2CCC(C(=O)NCc3ccc(F)cn3)CC2)c1 [(I-56)] | nM | 436 |
| O=C(NCc1nccs1)C1CCN(S(=O)(=O)c2cc(Cl)cc(Cl)c2)CC1 [(I-9)] | nM | 303 |

We next turn to a different compound, shown below.
Per the records, this compound ( CCOc1cc(Cl)cc(S(=O)(=O)N2CCC(C(=O)NCc3ccccn3)CC2)c1 [(I-53)] ) has IC50 equal to 410
